- Assayed System: T1, ECF25_1645
- T1 chain: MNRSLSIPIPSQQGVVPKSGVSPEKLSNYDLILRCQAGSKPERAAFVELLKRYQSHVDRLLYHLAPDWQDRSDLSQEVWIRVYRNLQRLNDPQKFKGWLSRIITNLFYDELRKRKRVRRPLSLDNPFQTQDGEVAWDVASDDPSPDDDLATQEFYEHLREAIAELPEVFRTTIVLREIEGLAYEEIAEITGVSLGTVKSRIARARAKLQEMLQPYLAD
// reported fold repression per item
Simply state the number, no unit and no words.

Below: 3 binders and their reported fold repression.
Binder	fold repression
AS25_1643_cl43 (protein) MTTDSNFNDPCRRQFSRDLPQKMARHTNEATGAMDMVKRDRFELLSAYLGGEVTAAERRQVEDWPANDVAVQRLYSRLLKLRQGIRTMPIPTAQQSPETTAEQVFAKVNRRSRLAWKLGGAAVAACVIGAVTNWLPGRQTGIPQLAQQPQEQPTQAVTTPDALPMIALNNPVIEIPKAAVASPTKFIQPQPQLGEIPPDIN	7.28
AS22_4450 (protein) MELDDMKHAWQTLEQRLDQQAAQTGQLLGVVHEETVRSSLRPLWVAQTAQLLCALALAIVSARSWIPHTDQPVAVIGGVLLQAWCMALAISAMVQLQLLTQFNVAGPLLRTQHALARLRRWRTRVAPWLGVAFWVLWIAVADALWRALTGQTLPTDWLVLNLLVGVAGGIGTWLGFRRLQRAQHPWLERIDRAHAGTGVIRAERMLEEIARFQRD	1.42
AS14_1324 (protein) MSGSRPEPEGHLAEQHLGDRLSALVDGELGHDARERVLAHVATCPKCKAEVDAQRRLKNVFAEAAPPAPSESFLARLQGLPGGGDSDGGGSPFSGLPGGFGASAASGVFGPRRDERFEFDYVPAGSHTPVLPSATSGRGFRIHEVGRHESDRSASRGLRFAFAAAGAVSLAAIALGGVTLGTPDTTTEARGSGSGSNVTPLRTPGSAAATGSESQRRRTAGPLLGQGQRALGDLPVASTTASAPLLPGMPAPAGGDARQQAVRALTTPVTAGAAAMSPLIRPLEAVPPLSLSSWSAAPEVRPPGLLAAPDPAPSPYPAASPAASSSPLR	3.18

Query: Which measured fold repression value corresponds to AS35_3582 (protein) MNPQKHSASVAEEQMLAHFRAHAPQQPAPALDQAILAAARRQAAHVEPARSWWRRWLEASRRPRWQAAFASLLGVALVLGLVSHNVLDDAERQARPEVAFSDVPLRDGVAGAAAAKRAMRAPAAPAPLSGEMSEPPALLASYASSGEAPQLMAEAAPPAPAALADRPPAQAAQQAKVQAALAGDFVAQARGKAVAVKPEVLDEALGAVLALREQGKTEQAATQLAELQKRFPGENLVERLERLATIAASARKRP ?
Result: 3.79
